# subject-of-test: Gal-4-PPAR (human PPAR LBD fused to GAL4 DNA-binding domain) (Homo sapiens (Human))
# Sequence (P37231 238-503): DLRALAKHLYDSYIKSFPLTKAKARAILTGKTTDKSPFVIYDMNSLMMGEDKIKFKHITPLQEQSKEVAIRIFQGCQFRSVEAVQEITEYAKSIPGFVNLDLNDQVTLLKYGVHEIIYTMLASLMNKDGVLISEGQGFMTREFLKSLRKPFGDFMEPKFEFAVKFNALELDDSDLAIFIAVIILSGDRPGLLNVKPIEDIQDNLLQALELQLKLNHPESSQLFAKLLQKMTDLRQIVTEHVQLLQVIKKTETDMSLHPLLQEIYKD
# experiment-summary: GAL4-PPARG LBD / UAS-luciferase transactivation assay in HEK 293T cells
# Format: cell-based
# test-parameters: GAL4 transactivation, HEK 293T cells; NA = not active; read-out: EC50 (nM) GAL4
Measured EC50 values are reported for all entries that follow.

{"cpd-smiles": "COc1ccc([C@H](C)NC(=O)c2ccc3c(c2)c(C)c(C)n3Cc2ccc(-c3ccccc3C(=O)O)cc2)cc1Cl", "EC50": "1630 nM"}
{"cpd-smiles": "Cc1c(F)cccc1[C@H](C)NC(=O)c1ccc2c(c1)c(C)c(C)n2Cc1ccc(-c2ccccc2C(=O)O)cc1", "EC50": "70 nM"}
{"cpd-smiles": "Cc1c(C)n(Cc2ccc(-c3ccccc3C(=O)O)cc2)c2ccc(C(=O)N[C@@H](C)c3ccc(Br)cn3)cc12", "EC50": "42 nM"}
{"cpd-smiles": "Cc1c(C)n(Cc2ccc(-c3ccccc3C(=O)O)cc2)c2ccc(C(=O)N[C@@H](C)c3cccc4c3OCO4)cc12", "EC50": "189 nM"}
{"cpd-smiles": "Cc1c(C)n(Cc2ccc(-c3ccccc3C(=O)O)cc2)c2ccc(C(=O)N[C@H](C)c3ccc(C4CC4)nc3)cc12", "EC50": "1990 nM"}
{"cpd-smiles": "Cc1c(C)n(Cc2ccc(-c3ccccc3C(=O)O)cc2)c2ccc(C(=O)N[C@@H](C)c3ccc(F)cc3C(F)(F)F)cc12", "EC50": "173 nM"}
{"cpd-smiles": "Cc1c(C)n(Cc2ccc(-c3ccccc3C(=O)O)cc2)c2ccc(C(=O)N[C@H](C)c3ccnc(Br)c3)cc12", "EC50": "907 nM"}
{"cpd-smiles": "Cc1c(C)n(Cc2ccc(-c3ccccc3C(=O)O)cc2)c2ccc(C(=O)NC(C)(C)c3ccc(Br)cc3)cc12", "EC50": "119 nM"}
{"cpd-smiles": "COc1cc(F)cc([C@H](C)NC(=O)c2ccc3c(c2)c(C)c(C)n3Cc2ccc(-c3ccccc3C(=O)O)cc2)c1", "EC50": "455 nM"}
{"cpd-smiles": "CCOc1cccc([C@H](C)NC(=O)c2ccc3c(c2)c(C)c(C)n3Cc2ccc(-c3ccccc3C(=O)O)cc2)c1", "EC50": "618 nM"}
{"cpd-smiles": "Cc1c(C)n(Cc2ccc(-c3ccccc3C(=O)O)cc2)c2ccc(C(=O)N[C@@H](C)c3ccc(Cl)nc3)cc12", "EC50": "4000 nM"}
{"cpd-smiles": "CC[C@@H](NC(=O)c1ccc2c(c1)c(C)c(C)n2Cc1ccccc1-c1ccc(C(=O)O)cc1)c1ccccc1", "EC50": "169 nM"}
{"cpd-smiles": "CCCc1ccc([C@H](C)NC(=O)c2ccc3c(c2)c(C)c(C)n3Cc2ccc(-c3ccccc3C(=O)O)cc2)cc1", "EC50": "1610 nM"}
{"cpd-smiles": "Cc1c(C)n(Cc2ccc(-c3ccccc3C(=O)O)cc2)c2ccc(C(=O)N[C@@H](C)c3ccc(Cl)c(Cl)c3)cc12", "EC50": "142 nM"}
{"cpd-smiles": "COc1ccc(F)cc1[C@H](C)NC(=O)c1ccc2c(c1)c(C)c(C)n2Cc1ccc(-c2ccccc2C(=O)O)cc1", "EC50": "405 nM"}
{"cpd-smiles": "CC[C@H](NC(=O)c1ccc2c(c1)c(C)c(C)n2Cc1ccccc1-c1cccc(C(=O)O)c1)c1ccccc1", "EC50": "793 nM"}
{"cpd-smiles": "Cc1c(C)n(Cc2ccc(-c3ccccc3C(=O)O)cc2)c2ccc(C(=O)N[C@@H](C)c3cc(C(F)(F)F)ccc3C(F)(F)F)cc12", "EC50": "106 nM"}
{"cpd-smiles": "Cc1c(C)n(Cc2ccc(-c3ccccc3C(=O)O)cc2)c2ccc(C(=O)N[C@@H](C)c3cc(Cl)cc(Cl)c3)cc12", "EC50": "155 nM"}

Numbers sourced from patent US8957093B2.
